target: human MCH receptor expressed from the open reading frame cDNA SEQ. ID. NO. 1 in 293-AEQ17 cells (human, UniProt Q99705 1-353); assay: cell-based or functional assay
Sequence (Q99705 whole entry): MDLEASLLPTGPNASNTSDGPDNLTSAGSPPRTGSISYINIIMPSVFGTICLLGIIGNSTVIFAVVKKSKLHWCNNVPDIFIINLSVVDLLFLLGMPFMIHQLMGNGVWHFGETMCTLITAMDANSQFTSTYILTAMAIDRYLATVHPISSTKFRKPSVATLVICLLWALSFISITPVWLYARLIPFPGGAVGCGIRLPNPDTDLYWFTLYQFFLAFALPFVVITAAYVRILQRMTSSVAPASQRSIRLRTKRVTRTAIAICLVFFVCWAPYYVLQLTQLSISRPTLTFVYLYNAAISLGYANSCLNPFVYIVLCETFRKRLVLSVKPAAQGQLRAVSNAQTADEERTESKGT
Bridges are numbered along the chain shown (N, C = ends).
property_name: EC50

A selection of reference data follows.
RCMLGRVYXPC (N-methyl-arginine at position 14; N-terminal acetyl, C-terminal amide, Cys-Cys disulfide as in SEQ. ID. NO. 7) [MCH analog SEQ. ID. NO. 29 (N-Me-Arg^14)]    > 1000 nM
RCMXGRVYRPC (N-methyl-leucine at position 9; N-terminal acetyl, C-terminal amide, Cys-Cys disulfide as in SEQ. ID. NO. 7, ID; NO; 7 peptide; MCH position numbering) [MCH analog SEQ. ID. NO. 26 (N-Me-Leu^9)]    > 10000 nM
RCXLGRVYRPC (N-methyl-norleucine at position 8; N-terminal acetyl, C-terminal amide, Cys-Cys disulfide as in SEQ. ID. NO. 7, ID; NO; 7 peptide; MCH position numbering) [MCH analog SEQ. ID. NO. 25 (N-Me-Nle^8)]    20 nM
RCMLGRVYRXC (sarcosine at position 15; N-terminal acetyl, C-terminal amide, Cys-Cys disulfide as in SEQ. ID. NO. 7) [MCH analog SEQ. ID. NO. 30 (Sar^15)]    25 nM

Now consider the entry below.
Name the recorded EC50 for Ac-RCMLGRVYRPC-NH2 (disulfide 2-11 (inferred), Corresponds to MCH positions 6-16; also called ID; NO; 7 MCH analog) [truncated MCH analog SEQ. ID. NO. 7: Ac-Arg-Cys-Met-Leu-Gly-Arg-Val-Tyr-Arg-Pro-Cys-amide] .
20 nM
